Biological target: human Lck enzyme (Homo sapiens)
Construct: purchased Carna Biosciences, Inc. 08-170
Assay: Lck enzyme inhibitory activity (time-resolved fluorometry, biotinylated peptide phosphorylation)
Assay type: biochemical
Conditions: biotinylated peptide phosphorylation, read-out: LCK_IC50
Experimental: 3. Lck Enzyme Inhibitory Activity Lck inhibitory activity was determined based on activity of inhibiting phosphorylation reaction of a biotinylated peptide (EGPWLEEEEEAYGWMDF) using a human Lck enzyme (manufactured by Carna Biosciences, Inc., cat 08-170). The phosphorylated biotinylated peptide was detected by time-resolved fluorometry using an anti-phosphorylated tyrosine antibody conjugated to europium cryptate, and streptavidin conjugated to XL665, an allophycocyanin derivative. […]
pIC50: −log10 of the molar value.
Quantity: pIC50

Query Smiles	System Tested	Quantity	Value Observed
Cc1cc(Oc2ccccc2F)ccc1-n1ncc(C(=O)c2cc3cc(F)c(NS(=O)(=O)c4cccc(Cl)n4)cc3[nH]2)c1N	human Lck enzyme (Homo sapiens)	pIC50	6.96
Cc1cc2cc(C(=O)c3cnn(-c4ccc(Oc5ccccc5F)cc4C)c3N)[nH]c2cc1NS(=O)(=O)c1cccc(C#N)n1	human Lck enzyme (Homo sapiens)	pIC50	7.11
Cc1cc(Oc2ccccc2F)ccc1-n1ncc(C(=O)c2cc3cc(F)c(C4CCN(C(C)C)CC4)cc3[nH]2)c1N	human Lck enzyme (Homo sapiens)	pIC50	8.72
COc1cc2cc(C(=O)c3cnn(-c4cnc(Oc5ccccc5F)cc4C)c3N)[nH]c2cc1NS(=O)(=O)CC(=O)N1CCCC1	human Lck enzyme (Homo sapiens)	pIC50	8.00

(P) Cc1cc(Oc2ccccc2F)ncc1-n1ncc(C(=O)c2cc3cc(OCC(F)F)c(N4CCCS4(=O)=O)cc3[nH]2)c1N
(Q) Cc1cc2cc(C(=O)c3cnn(-c4cnc(Oc5c(F)cccc5F)cc4C)c3N)[nH]c2cc1NS(=O)(=O)N1CCOCC1
Request: Which has the smaller recorded pIC50, P or Q ? Identify your selection by its label.
Response: Q

----------
Target: human Yes1 enzyme (Homo sapiens)
Construct: made in house
Sequence (P07947 whole entry): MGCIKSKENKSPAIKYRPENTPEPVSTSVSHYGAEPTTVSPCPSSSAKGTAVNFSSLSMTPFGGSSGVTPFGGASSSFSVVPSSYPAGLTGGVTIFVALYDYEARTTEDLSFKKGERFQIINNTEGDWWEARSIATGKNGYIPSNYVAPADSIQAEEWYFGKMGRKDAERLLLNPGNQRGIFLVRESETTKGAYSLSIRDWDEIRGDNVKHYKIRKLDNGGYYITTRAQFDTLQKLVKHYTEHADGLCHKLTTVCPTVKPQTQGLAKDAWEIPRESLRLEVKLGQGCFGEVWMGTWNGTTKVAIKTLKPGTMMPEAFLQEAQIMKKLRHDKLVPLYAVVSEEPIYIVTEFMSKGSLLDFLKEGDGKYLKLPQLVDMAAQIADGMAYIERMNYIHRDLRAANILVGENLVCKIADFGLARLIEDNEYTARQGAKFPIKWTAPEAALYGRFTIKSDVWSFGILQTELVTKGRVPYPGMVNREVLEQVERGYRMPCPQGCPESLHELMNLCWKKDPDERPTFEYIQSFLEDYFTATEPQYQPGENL
Experiment: Yes1 enzyme inhibitory activity (time-resolved fluorometry, biotinylated peptide phosphorylation)
Type: biochemical
Conditions: biotinylated peptide phosphorylation, read-out: YES_IC50
Quantity: IC50 (nM)

(A) Cc1cc(Oc2c(F)cccc2F)ncc1-n1ncc(C(=O)c2cc3cc(F)c(NS(=O)(=O)c4cncc(F)c4)cc3[nH]2)c1N
(B) Cc1cc(Oc2ccccc2F)ncc1-n1ncc(C(=O)c2cc3cc(F)c(NS(=O)(=O)c4cccc(F)n4)cc3[nH]2)c1N
Request: Which has the smaller recorded IC50, A or B ? Identify your selection by its label.
Response: B
(B: 4.6 nM, A: 7.6 nM)

(1) Cc1cnc(F)c(S(=O)(=O)Nc2cc3[nH]c(C(=O)c4cnn(-c5cnc(Oc6c(F)cccc6F)cc5C)c4N)cc3cc2OCC(F)F)c1
(2) Cc1cc(Oc2ccccc2F)ccc1-n1ncc(C(=O)c2cc3cc(OCC(F)F)c(N4CCCC4=O)cc3[nH]2)c1N
Request: Could you kindly indicate whether 1 or 2 has the higher IC50 value? Identify your selection by its label.
Response: 1
(1: 2.2 nM, 2: 0.89 nM)

(1) Cc1cc(Oc2ccccc2Cl)cc(F)c1-n1ncc(C(=O)c2cc3cc(F)c(NS(C)(=O)=O)cc3[nH]2)c1N
(2) Cc1cc(Oc2ccccc2F)ncc1-n1ncc(C(=O)c2cc3cc(OC(F)F)c(N4CCOCC4)cc3[nH]2)c1N
Request: Could you kindly indicate whether 1 or 2 has the higher IC50 value? Identify your selection by its label.
Response: 2

(I) COc1cc2cc(C(=O)c3cnn(-c4cnc(Oc5c(F)cccc5F)cc4C)c3N)[nH]c2cc1NS(C)(=O)=O
(II) Cc1cccc(S(=O)(=O)Nc2cc3[nH]c(C(=O)c4cnn(-c5cnc(Oc6ccccc6F)cc5C)c4N)cc3cc2F)n1
(III) Cc1cc2cc(C(=O)c3cnn(-c4ccc(Oc5ccccc5F)cc4C)c3N)[nH]c2cc1N1C(=O)N[C@@H](C)C1=O
Request: Order each entry by recorded IC50, climbing from the minimum. In plain terms: list the labels in the order you were asked to.
Response: III, I, II

(A) CC(=O)N1CCC(c2cc3[nH]c(C(=O)c4cnn(-c5c(C)cc(Oc6ccccc6F)cc5F)c4N)cc3cc2OCC(F)F)CC1
(B) Cc1cc(Oc2c(F)cccc2Cl)ncc1-n1ncc(C(=O)c2cc3cc(F)c(NS(=O)(=O)C4CC4)cc3[nH]2)c1N
(C) COc1cc2cc(C(=O)c3cnn(-c4cnc(Oc5ccccc5F)cc4C)c3N)[nH]c2cc1NS(=O)(=O)CC(=O)NC(C)C
Request: Descending sort on IC50 required. In plain terms: list the labels in the order you were asked to.
Response: B, A, C
(B: 12 nM, A: 2.1 nM, C: 1.1 nM)

(A) COc1cc2cc(C(=O)c3cnn(-c4cnc(Oc5ccccc5F)cc4C)c3N)[nH]c2cc1NC(C)=O
(B) Cc1cc(Oc2ccccc2F)ccc1-n1ncc(C(=O)c2cc3cc(OCC(F)F)c(NS(=O)(=O)C4CC4)cc3[nH]2)c1N
Request: Which has the smaller recorded IC50, A or B ? Identify your selection by its label.
Response: A

(P) Cc1cc(Oc2ccccc2F)cc(F)c1-n1ncc(C(=O)c2cc3cc(NS(C)(=O)=O)c(Cl)cc3[nH]2)c1N
(Q) Cc1cc2cc(C(=O)c3cnn(-c4cnc(Oc5ccccc5F)cc4C)c3N)[nH]c2cc1NS(=O)(=O)c1csc2ccccc12
(R) Cc1cc(Oc2ccccc2F)ccc1-n1ncc(C(=O)c2cc3cc(OC(F)F)c(NS(C)(=O)=O)cc3[nH]2)c1N
Request: Order each entry by recorded IC50, climbing from the minimum. In plain terms: list the labels in the order you were asked to.
Response: P, R, Q
(P: 0.89 nM, R: 1.6 nM, Q: 24 nM)

(I) Cc1cc2cc(C(=O)c3cnn(-c4c(C)cc(Oc5ccccc5F)cc4F)c3N)[nH]c2cc1N1CCCS1(=O)=O
(II) Cc1cccc(S(=O)(=O)Nc2cc3[nH]c(C(=O)c4cnn(-c5ccc(Oc6ccccc6F)cc5C)c4N)cc3cc2F)n1
(III) Cc1cc(Oc2ccccc2F)ncc1-n1ncc(C(=O)c2cc3cc(OCC(F)F)c(N4CCCC4=O)cc3[nH]2)c1N
(IV) CC(=O)N1CCC(c2cc3[nH]c(C(=O)c4cnn(-c5ccc(Oc6ccccc6F)cc5C)c4N)cc3cc2OC(F)F)CC1
(V) COc1cc2cc(C(=O)c3cnn(-c4ccc(Oc5ccccc5F)cc4C)c3N)[nH]c2cc1NS(=O)(=O)CC(=O)N1CCOCC1
Request: Order each entry by recorded IC50, climbing from the minimum. In plain terms: list the labels in the order you were asked to.
Response: V, III, II, I, IV

----------
Target: human Lck enzyme (Homo sapiens, UniProt P06239)
Construct: purchased Carna Biosciences, Inc. 08-170
Sequence (P06239 whole entry): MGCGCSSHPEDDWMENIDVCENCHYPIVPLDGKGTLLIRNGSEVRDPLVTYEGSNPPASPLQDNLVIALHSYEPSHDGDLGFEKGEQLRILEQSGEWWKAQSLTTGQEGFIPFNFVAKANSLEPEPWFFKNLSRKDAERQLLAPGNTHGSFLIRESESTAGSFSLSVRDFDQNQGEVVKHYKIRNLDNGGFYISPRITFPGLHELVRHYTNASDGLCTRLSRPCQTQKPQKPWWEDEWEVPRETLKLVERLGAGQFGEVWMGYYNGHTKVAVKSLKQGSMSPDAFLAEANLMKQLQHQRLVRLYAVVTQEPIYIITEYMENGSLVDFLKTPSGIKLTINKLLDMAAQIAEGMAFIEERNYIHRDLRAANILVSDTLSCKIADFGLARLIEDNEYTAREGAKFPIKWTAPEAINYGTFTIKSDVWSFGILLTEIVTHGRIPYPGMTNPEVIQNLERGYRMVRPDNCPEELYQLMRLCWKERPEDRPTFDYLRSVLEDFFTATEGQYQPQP
Experiment: Lck enzyme inhibitory activity (time-resolved fluorometry, biotinylated peptide phosphorylation)
Assay type: biochemical
Conditions: biotinylated peptide phosphorylation, read-out: LCK_IC50
Quantity: IC50 (nM)

Guide cases for IC50, answers given:
Compound	IC50 / nM
CC(=O)N1CCC(c2cc3[nH]c(C(=O)c4cnn(-c5c(C)cc(Oc6ccccc6F)cc5F)c4N)cc3cc2OCC(F)F)CC1 [Example 4-17-017]	5.8
Cc1cc(Oc2ccccc2F)ccc1-n1ncc(C(=O)c2cc3cc(OCC(F)F)c(NS(=O)(=O)c4cc(F)cc(F)c4)cc3[nH]2)c1N [Example 5-1-415]	110
Cc1cc(Oc2ccccc2F)ncc1-n1ncc(C(=O)c2cc3cc(OC(F)F)c(C4CCN(S(=O)(=O)C5CC5)CC4)cc3[nH]2)c1N [Example 4-17-010]	45
Cc1cc(Oc2c(F)cccc2F)ncc1-n1ncc(C(=O)c2cc3cc(OC(F)F)c(NC4COC4)cc3[nH]2)c1N [Example 4-23-014]	9.2

(a) Cc1cc(Oc2cccc(Cl)c2)ncc1-n1ncc(C(=O)c2cc3cc(Cl)c(NS(C)(=O)=O)cc3[nH]2)c1N [Example 4-2-091]
(b) Cc1cc2cc(C(=O)c3cnn(-c4cnc(Oc5c(F)cccc5F)cc4C)c3N)[nH]c2cc1NS(=O)(=O)c1cccc(F)c1 [Example 5-1-551]
Request: Which has the smaller recorded IC50, a or b ? Identify your selection by its label.
Response: a

----------
Biological target: human Yes1 enzyme (Homo sapiens)
Construct: made in house
Experiment: Yes1 enzyme inhibitory activity (time-resolved fluorometry, biotinylated peptide phosphorylation)
Format: biochemical
Conditions: biotinylated peptide phosphorylation, read-out: YES_IC50
Quantity: IC50 (nM)

Query Smiles	System Tested	IC50 (nM)
Cc1cc(Oc2c(F)cccc2F)ncc1-n1ncc(C(=O)c2cc3cc(F)c(NS(=O)(=O)c4cccc(F)c4)cc3[nH]2)c1N	human Yes1 enzyme (Homo sapiens)	17
Cc1cc(Oc2ccccc2F)ccc1-n1ncc(C(=O)c2cc3cc(F)c(NS(=O)(=O)CCCF)cc3[nH]2)c1N	human Yes1 enzyme (Homo sapiens)	0.67

(I) Cc1cc(Oc2ccccc2F)ncc1-n1ncc(C(=O)c2cc3cc(F)c(N4CCCS4(=O)=O)cc3[nH]2)c1N
(II) Cc1cc(Oc2ccccc2F)ccc1-n1ncc(C(=O)c2cc3cc(NS(C)(=O)=O)c(F)cc3[nH]2)c1N
(III) Cc1cc2cc(C(=O)c3cnn(-c4c(C)cc(Oc5ccccc5F)cc4F)c3N)[nH]c2cc1NS(=O)(=O)CCCF
(IV) Cc1cc(Oc2cccc(Cl)c2)cc(F)c1-n1ncc(C(=O)c2cc3cc(F)c(NS(C)(=O)=O)cc3[nH]2)c1N
Request: Order each entry by recorded IC50, climbing from the minimum. In plain terms: list the labels in the order you were asked to.
Response: II, I, III, IV
